// reported Peak areas for each item listed
test system: microbiota present in the faecal samples; experiment: Faecal fermentation, distribution of oligosaccharides (HPAEC-PAD peak areas); settings: Comp. Ex. 1 sample, 24 h, Donor C
Respond numerically, and do not add a unit to the figure.

Peak areas in this record for OC[C@H]1O[C@@H](O[C@H]2[C@@H](O)[C@@H](CO)O[C@@H](O[C@H]3C(O)O[C@H](CO)[C@@H](O)[C@@H]3O)[C@@H]2O)[C@H](O)[C@@H](O)[C@H]1O (stereo partly drawn) : 0.0

OC[C@H]1O[C@@H](O[C@H]2[C@@H](O)[C@@H](CO)O[C@@H](O[C@H]3[C@H](O)[C@@H](CO)OC(O)[C@@H]3O)[C@@H]2O)[C@H](O)[C@@H](O)[C@H]1O (stereo partly drawn) yielded Peak areas of 0.0

Reported Peak areas ( OC[C@H]1O[C@@H](O[C@@H]2[C@H](O)[C@@H](O)[C@H](O[C@H]3[C@H](O)[C@@H](O)C(O)O[C@@H]3CO)O[C@@H]2CO)[C@H](O)[C@@H](O)[C@H]1O (stereo partly drawn) ) = 0.7

Measured Peak areas of `O=C[C@H](O)[C@@H](O)[C@@H](O)[C@H](O)CO` : 0.0

Briefly, Peak areas measured for `O=C[C@H](O)[C@@H](O)[C@H](O)[C@H](O)CO` : 0.0
